target: UniProt:Q9YQ12
Sequence (Q9YQ12 whole entry): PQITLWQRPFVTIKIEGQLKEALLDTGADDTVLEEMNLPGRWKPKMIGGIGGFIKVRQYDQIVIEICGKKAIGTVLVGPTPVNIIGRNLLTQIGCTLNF
pKi: −log10 of the molar value.
Would you mind labelling by pKi? At or over 7 is rule met, under is rule not met.

compound-smiles | system | assigned-class
COc1ccc(S(=O)(=O)N(CC(C)C)C[C@@H](O)[C@H](Cc2ccccc2)Nc2c(N[C@H]3CO[C@H]4OCC[C@H]43)c(=O)c2=O)cc1 | UniProt:Q9YQ12 | rule met
COc1ccc(S(=O)(=O)N(CC(C)C)C[C@@H](O)[C@H](Cc2ccccc2)Nc2c(O[C@H]3CCOC3)c(=O)c2=O)cc1 | UniProt:Q9YQ12 | rule met
CCOc1c(N[C@@H](Cc2ccccc2)[C@H](O)CN(CC(C)C)S(=O)(=O)c2ccc(OC)cc2)c(=O)c1=O | UniProt:Q9YQ12 | rule not met
COc1ccc(S(=O)(=O)N(CC(C)C)C[C@@H](O)[C@H](Cc2ccccc2)Nc2c(N(C)[C@H]3CO[C@H]4OCC[C@H]43)c(=O)c2=O)cc1 | UniProt:Q9YQ12 | rule met
COc1ccc(S(=O)(=O)N(CC(C)C)C[C@@H](O)[C@H](Cc2ccccc2)Nc2c(N(C)[C@H]3CCOC3)c(=O)c2=O)cc1 | UniProt:Q9YQ12 | rule not met
COc1ccc(S(=O)(=O)N(CC(C)C)C[C@@H](O)[C@H](Cc2ccccc2)Nc2c(O[C@@H]3CCOC3)c(=O)c2=O)cc1 | UniProt:Q9YQ12 | rule not met
COc1ccc(S(=O)(=O)N(CC(C)C)C[C@@H](O)[C@H](Cc2ccccc2)Nc2c(N[C@H]3CCOC3)c(=O)c2=O)cc1 | UniProt:Q9YQ12 | rule not met
